Cited source for all entries: the supplement of paper PMC10307832

- System: UMC-11
- Assay notes: relative viability (nuclei count vs DMSO), 5 days (fraction); higher = more cells survive
- Experimental conditions: first compound 0.002 µM
Entries and their measured relative viability follow.
// keep it numeric: no unit symbol after the value

Field: example entries. Status: answers known.
Molecule	relative viability
CCNC(=O)c1noc(-c2cc(C(C)C)c(O)cc2O)c1-c1ccc(CN2CCOCC2)cc1 [Luminespib] + COc1cc2c(Oc3ccc(NC(=O)C4(C(=O)Nc5ccc(F)cc5)CC4)cc3F)ccnc2cc1OCCCN1CCOCC1 [Foretinib] (partner 0.25 µM)	1.14
CCNC(=O)c1noc(-c2cc(C(C)C)c(O)cc2O)c1-c1ccc(CN2CCOCC2)cc1 [Luminespib] + C[C@]1(O)C[C@@H](c2nc(-c3ccc4ccc(-c5ccccc5)nc4c3)c3c(N)nccn32)C1 [Linsitinib] (partner 1 µM)	0.997
CCNC(=O)c1noc(-c2cc(C(C)C)c(O)cc2O)c1-c1ccc(CN2CCOCC2)cc1 [Luminespib] + Cc1nc(Nc2ncc(C(=O)Nc3c(C)cccc3Cl)s2)cc(N2CCN(CCO)CC2)n1 [Dasatinib] (partner 0.075 µM)	0.474

// query Which measured relative viability belongs to CCNC(=O)c1noc(-c2cc(C(C)C)c(O)cc2O)c1-c1ccc(CN2CCOCC2)cc1 [Luminespib] + CS(=O)(=O)CCNCc1ccc(-c2ccc3ncnc(Nc4ccc(OCc5cccc(F)c5)c(Cl)c4)c3c2)o1 [Lapatinib] (partner 2 µM) , tested on UMC-11?
// result 0.85
